test system: OVCAR-3 ovarian; test: NCI tumour cell line growth inhibition, 48 h; in the data active = GI50 below about 0.43 µM; inactive = the rest
*1 amine or outer side, *2 acyl side, *3 side chain or, on linkers, in order; H or OH if unused. Where a SMILES comes first, the peptide text is derived from it. Bridges are numbered along the chain shown (N, C = ends). Roman numbers before positions name the chains, in order. [ ]: non-standard residue; d: D form. Actinocin(1to9) = Cc1c2oc3c(C)ccc(C(=O)[*:2])c3nc-2c(C(=O)[*:1])c(N)c1=O; NMeV = CN[CH](C(=O)O)C(C)C; Sar = CNCC(=O)O
Output constraint: value belongs to active, inactive

Compound	Group label
CCCCCCCCCCCCCCCC(=O)OCC1OC(OCCCC)[C@H](O[C@@H]2OC(C)C(OC(=O)CCC)C(O)C2O)C(O)C1O (some centres not stated)	inactive

Problem: Which outcome did this test record for the compound Fc1ccc(C2CC(c3cccc(Nc4ccncc4)c3)=NN2c2ccccc2)cc1 (configuration not stated) ?
Solution: inactive

Problem: Another compound to check: COc1ccc(CC2NC(=O)C(NC(=O)c3c4nc5c(C(=O)NC6C(=O)NC(Cc7ccc(OC)cc7)C(=O)N7CCCC7C(=O)N(C)CC(=O)N(C)C(C(C)C)C(=O)OC6C)ccc(C)c5oc-4c(C)c(=O)c3N)C(C)OC(=O)C(C(C)C)N(C)C(=O)CN(C)C(=O)C3CCCN3C2=O)cc1 (configuration not stated) (I: TY(Me)P[Sar][NMeV] / II: TY(Me)P[Sar][NMeV]; ester I:1-I:C, II:1-II:C; linker I:N-II:N via Actinocin(1to9); configuration not given here)
Solution: active

Problem: Another compound to check: `CC(=O)[CH-]C(=O)c1ccccc1.CC(=O)[CH-]C(=O)c1ccccc1.CC(=O)[CH-]C(=O)c1ccccc1.[Cl-].[Hf+4]`
Solution: inactive

Problem: Another compound to check: CC(=O)CCC[C@@H](C)[C@@H]1O[C@H]([C@@]2(C)CCC(=O)O2)CC2[C@H]1OC(=O)C21CC1 (some centres not stated)
Solution: inactive

Problem: Another compound to check: `COc1ccc(/C=C/C(=O)C(=O)/C=C/c2ccc(OC)c(OC)c2)cc1OC`
Solution: inactive

Problem: Another compound to check: `COc1cc(C(=O)/C=C/c2cccnc2Nc2ccc(Cl)cc2)cc(OC)c1OC`
Solution: inactive

# credit: PubChem BioAssay (NCI)
